Known self-splicing fitness (ln) of a selection of sequences
testName: self-splicing fitness, log relative to wild type (ln ratio); higher = more splicing; Tetrahymena group I intron in knt gene, E. coli kanamycin selection, DiMSum; sequences stand for … in CUCUCU…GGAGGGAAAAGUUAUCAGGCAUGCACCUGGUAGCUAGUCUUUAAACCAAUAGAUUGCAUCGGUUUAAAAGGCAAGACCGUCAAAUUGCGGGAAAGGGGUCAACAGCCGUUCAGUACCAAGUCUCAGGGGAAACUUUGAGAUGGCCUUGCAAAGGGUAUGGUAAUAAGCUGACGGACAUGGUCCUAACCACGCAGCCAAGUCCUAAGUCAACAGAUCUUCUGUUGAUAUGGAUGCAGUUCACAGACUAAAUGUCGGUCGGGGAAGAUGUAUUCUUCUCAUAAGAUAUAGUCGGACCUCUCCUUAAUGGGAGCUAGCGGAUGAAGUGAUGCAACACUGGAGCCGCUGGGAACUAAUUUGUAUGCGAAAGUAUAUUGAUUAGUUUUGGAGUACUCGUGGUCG;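 note: selection with 25 µg/mL kanamycin versus none on LB agar overnight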
conditionContext: 37 °C
Answer with the value's number alone.

These solved cases illustrate the format of a correct answer.
{"sequenceText": "GUGGAGCAAUAUUACGAAAU", "result": -2.05}
{"sequenceText": "ACACAGCAAUAUUACGAAUU", "result": -2.02}
{"sequenceText": "CCCUAGCAAUAUUACGGUAA", "result": -3.02}

Quick check: self-splicing fitness (ln) of GAUCAGCAAUAUUACGAUAA ? 0.106

Quick check: self-splicing fitness (ln) of UGGAAGCAAUAUUACGUUUC ? -2.82

---

Known self-splicing fitness (ln) of a selection of sequences
testName: self-splicing fitness, log relative to wild type (ln ratio); higher = more splicing; Tetrahymena group I intron in knt gene, E. coli kanamycin selection, DiMSum; sequences stand for … in CUCUCU…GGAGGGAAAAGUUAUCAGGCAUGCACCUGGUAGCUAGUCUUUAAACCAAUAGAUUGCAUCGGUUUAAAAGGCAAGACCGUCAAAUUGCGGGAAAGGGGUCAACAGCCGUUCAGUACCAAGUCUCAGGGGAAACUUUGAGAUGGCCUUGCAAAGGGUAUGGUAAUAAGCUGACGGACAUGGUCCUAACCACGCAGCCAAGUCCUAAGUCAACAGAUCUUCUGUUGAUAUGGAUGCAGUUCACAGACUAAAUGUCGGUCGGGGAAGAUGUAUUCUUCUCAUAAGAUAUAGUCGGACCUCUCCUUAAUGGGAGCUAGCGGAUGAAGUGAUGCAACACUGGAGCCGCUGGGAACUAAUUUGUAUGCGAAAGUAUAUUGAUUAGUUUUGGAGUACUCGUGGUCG
conditionContext: 30 °C
Answer with the value's number alone.

These solved cases illustrate the format of a correct answer.
{"sequenceText": "CAGAAGCAAUAUUACGUAAG", "result": -0.12}
{"sequenceText": "AACUAGCAAUAUUACGAUGU", "result": -0.797}
{"sequenceText": "UCCUAGCAAUAUUACGUAUG", "result": -4.13}
{"sequenceText": "AUGUAGCAAUAUUACGGUUU", "result": -0.83}
{"sequenceText": "ACUAAGCAAUAUUACGAAGU", "result": -3.81}
{"sequenceText": "GAUAAGCAAUAUUACGCCCC", "result": -2.27}

Quick check: self-splicing fitness (ln) of GUUUAGCAAUAUUACGCAUC ? -1.28
